test: Caspase-3/7 induction in CHO-K1 cells by small molecules, qHTS assay (AID 1346980); details: CHO-K1 caspase-3/7 induction, Caspase-Glo luminescence, 17 h; series mostly up to 92.4 µM; note: nearly all actives have a fitted effect of over 15% in size
Active and inactive are the calls of the source. Calls come from the whole dose curve; as a rule, active = well fitted activation curve with a large enough effect in the repeat runs; inconclusive = weak or mixed curves; inactive = flat fitted curve, though single readings scatter.
Select the matching outcome among active, inactive

Solved entries:
>>> df
                                   compound  classname
0             Nc1c(Br)cc([N+](=O)[O-])cc1Br   inactive
1  O=C1OC2(c3ccccc31)c1ccc(O)c(Br)c1Oc1c2ccc(O)c1Br   inactive
2         Clc1nc(C(Cl)(Cl)Cl)c(Cl)c(Cl)c1Cl     active
3  CC(C)(C)c1cc(CCC(=O)OCCSCCOC(=O)CCc2cc(C(C)(C)C)c(O)c(C(C)(C)C)c2)cc(C(C)(C)C)c1O   inactive
4                             Cc1cccc(C)c1C   inactive
5    c1ccc2c(c1)-c1ccc3ccc4cccc5cc-2c1c3c45   inactive
6             COC(=O)c1ccc([N+](=O)[O-])cc1   inactive
7        CC(C=O)c1ccccc1 (stereo not given)   inactive

Query string: Fill in: this test's call for CC1(C)[C@H](C(=O)OCc2cccc(Oc3ccccc3)c2)[C@@H]1C=C(Cl)Cl is ___
Result string: inactive

Query string: Could you kindly confirm the outcome this assay logged for CN(C[C@@H](CC[N+]12CCC(C3CCCCC3)(CC1)CC2)c1ccc(Cl)c(Cl)c1)C(=O)c1cc(C(F)(F)F)cc(C(F)(F)F)c1 ?
Result string: inactive
